Below, each of the binders is paired with its reported kon value.
- target-of-assay: T1, Human IL-18BP (isoform A) (human, UniProt O95998 31-194, biotinylated (site not stated))
- T1 construct: also called decoy receptor
- T1 sequence: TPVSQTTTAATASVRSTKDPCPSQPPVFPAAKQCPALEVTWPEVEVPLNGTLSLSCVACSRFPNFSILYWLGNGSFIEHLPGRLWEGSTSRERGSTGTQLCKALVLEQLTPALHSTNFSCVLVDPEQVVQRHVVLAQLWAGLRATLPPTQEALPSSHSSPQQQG
- assay-comment: SPR, Biacore 8K, 37 C, biotinylated target on SA chip, single-cycle kinetics
Numeric answer only, unit M⁻¹ s⁻¹ assumed.

Below, 2 binders whose answers are already recorded.
binder	experimental-value
Human IL-18 F57C/T81C (ligand, Made in mammalian cells) YFGKLESKLSVIRNLNDQVLCIDQGNRPLFEDMTDSDSRDNAPRCIFIISMYKDSQPRGMAVTISVKSEKISTLSSENKIISFKEMNPPDNIKDTKSDIIFFQRSVPGHDNKMQFESSSYEGYFLASEKERDLFKLILKKEDELGDRSIMFTVQNED	3.4e+06
Human IL-18 L174C (ligand, Made in mammalian cells) YFGKLESKLSVIRNLNDQVLFIDQGNRPLFEDMTDSDSRDNAPRTIFIISMYKDSQPRGMAVTISVKSEKISTLSCENKIISFKEMNPPDNIKDTKSDIIFFQRSVPGHDNKMQFESSSYEGYFLASEKERDLFKLICKKEDELGDRSIMFTVQNED	2.93e+06

The record that follows has no kon shown yet.
Task item: Consider the binder Human IL-18 N50C (ligand, Made in mammalian cells) YFGKLESKLSVIRCLNDQVLFIDQGNRPLFEDMTDSDSRDNAPRTIFIISMYKDSQPRGMAVTISVKSEKISTLSSENKIISFKEMNPPDNIKDTKSDIIFFQRSVPGHDNKMQFESSSYEGYFLACEKERDLFKLILKKEDELGDRSIMFTVQNED . State its measured kon.
Reply: 4.22e+06
